assay: The drug is tested on Bacteroides fragilis strain: HMW615 for biotransformation. The drug concentrations were measured before and after a 12-h incubation by liquid-chromatography-coupled mass spectrometry (LC–MS); details: 2 µM

compound: CN1[C@@H]2CC[C@H]1C[C@@H](OC(=O)c1c[nH]c3ccccc13)C2 [TROPISETRON]
Bacterial Biotransformation: Compound NOT metabolized
//
compound: CC(=O)OCC(=O)[C@@]12N=C(C)O[C@@H]1C[C@H]1[C@@H]3CCC4=CC(=O)C=C[C@]4(C)[C@H]3[C@@H](O)C[C@@]12C [DEFLAZACORT]
Bacterial Biotransformation: Compound metabolized
//
compound: CC(C)C[C@H]1C(=O)N2CCC[C@H]2[C@]2(O)O[C@](NC(=O)[C@@H]3C=C4c5cccc6[nH]c(Br)c(c56)C[C@H]4N(C)C3)(C(C)C)C(=O)N12.CS(=O)(=O)O [BROMOCRIPTINE MESYLATE]
Bacterial Biotransformation: Compound metabolized
//
compound: CN(C)CCC=C1c2ccccc2COc2ccccc21 [DOXEPIN]
Bacterial Biotransformation: Compound NOT metabolized

###

assay: The drug is tested on Clostridium sporogenes strain: ATCC15579 for biotransformation. The drug concentrations were measured before and after a 12-h incubation by liquid-chromatography-coupled mass spectrometry (LC–MS); details: 2 µM
reported_property: Bacterial Biotransformation

Consider the following illustrative entries.
molecule: CCN(CC)CCOC(=O)C1(C2CCCCC2)CCCCC1
Bacterial Biotransformation: Compound NOT metabolized

molecule: CC(Oc1c(Cl)cccc1Cl)C1=NCCN1 (centres undefined)
Bacterial Biotransformation: Compound metabolized

molecule: c1ccc2[nH]c(-c3cscn3)nc2c1
Bacterial Biotransformation: Compound NOT metabolized

molecule: COc1ccc(/C=C/C(=O)Nc2ccccc2C(=O)O)cc1OC
Bacterial Biotransformation: Compound NOT metabolized

molecule: CCc1nn(CCCN2CCN(c3cccc(Cl)c3)CC2)c(=O)n1CCOc1ccccc1
Bacterial Biotransformation: Compound NOT metabolized

molecule: C[C@@H]1CC[C@H]2[C@@H](C)C(=O)O[C@@H]3O[C@@]4(C)CC[C@@H]1[C@]32OO4
Bacterial Biotransformation: Compound metabolized

molecule: CCN(C)C(=O)Oc1cccc([C@H](C)N(C)C)c1.O=C(O)C(O)C(O)C(=O)O [RIVASTIGMINE TARTRATE]
Bacterial Biotransformation: Compound NOT metabolized

molecule: N#Cc1ccc2c(c1)N(CCCN1CCC(O)CC1)c1ccccc1S2
Bacterial Biotransformation: Compound NOT metabolized

// next entry
Returns the measured Bacterial Biotransformation for the input molecule. Input: CN(C)CCC=C1c2ccccc2COc2ccccc21 [DOXEPIN] Compound NOT metabolized

###

experiment: The drug is tested on Bifidobacterium ruminantium strain: fecal isolate for biotransformation. The drug concentrations were measured before and after a 12-h incubation by liquid-chromatography-coupled mass spectrometry (LC–MS); settings: 2 µM

compound: CC(N)C12CC3CC(CC(C3)C1)C2 (centres undefined)
Bacterial Biotransformation: Compound NOT metabolized

compound: CC(C)[C@H]1CC[C@H](C(=O)N[C@H](Cc2ccccc2)C(=O)O)CC1 [NATEGLINIDE]
Bacterial Biotransformation: Compound NOT metabolized

compound: CC1=C(CC(=O)O)c2cc(F)ccc2/C1=C\c1ccc([S+](C)[O-])cc1 (centres undefined)
Bacterial Biotransformation: Compound NOT metabolized

###

test: The drug is tested on Clostridium sp. strain: fecal isolate for biotransformation. The drug concentrations were measured before and after a 12-h incubation by liquid-chromatography-coupled mass spectrometry (LC–MS); settings: 2 µM
reported_property: Bacterial Biotransformation

molecule: N[C@@H](Cc1ccc(N(CCCl)CCCl)cc1)C(=O)O
Bacterial Biotransformation: Compound metabolized
//
molecule: NC(=O)N1c2ccccc2CC(=O)c2ccccc21 [OXCARBAZEPINE]
Bacterial Biotransformation: Compound NOT metabolized
//
molecule: CCOc1ccc(NC(C)=O)cc1
Bacterial Biotransformation: Compound NOT metabolized
//
molecule: CCCCC1=NC2(CCCC2)C(=O)N1Cc1ccc(-c2ccccc2-c2nnn[nH]2)cc1
Bacterial Biotransformation: Compound metabolized
//
molecule: CCc1oc2ccccc2c1C(=O)c1cc(Br)c(O)c(Br)c1
Bacterial Biotransformation: Compound NOT metabolized

Returns the measured Bacterial Biotransformation for the input molecule. Input: CC(=O)OCC(=O)[C@@]12N=C(C)O[C@@H]1C[C@H]1[C@@H]3CCC4=CC(=O)C=C[C@]4(C)[C@H]3[C@@H](O)C[C@@]12C Compound metabolized

Returns the measured Bacterial Biotransformation for the input molecule. Input: CC(C)(C)N.CCC[C@H](N[C@@H](C)C(=O)N1[C@H](C(=O)O)C[C@@H]2CCCC[C@@H]21)C(=O)OCC Compound NOT metabolized

Returns the measured Bacterial Biotransformation for the input molecule. Input: NC12CC3CC(CC(C3)C1)C2 Compound NOT metabolized

Returns the measured Bacterial Biotransformation for the input molecule. Input: CCOC(=O)[C@H](CCc1ccccc1)N[C@@H](C)C(=O)N1Cc2ccccc2C[C@H]1C(=O)O Compound metabolized

Returns the measured Bacterial Biotransformation for the input molecule. Input: CN(C/C=C/C#CC(C)(C)C)Cc1cccc2ccccc12 Compound NOT metabolized

###

settings: bacteroides fragilis, 12 h, 2 µM
Description: The drug is tested on Bacteroides fragilis strain: 3397 (T10) for biotransformation. The drug concentrations were measured before and after a 12-h incubation by liquid-chromatography-coupled mass spectrometry (LC–MS)
reported_property: Bacterial Biotransformation

Consider the following illustrative entries.
molecule: COc1ccnc(C[S+]([O-])c2nc3ccc(OC(F)F)cc3[nH]2)c1OC (stereo not given) [PANTOPRAZOLE]
Bacterial Biotransformation: Compound metabolized
//
molecule: OCCN(CCO)c1nc(N2CCCCC2)c2nc(N(CCO)CCO)nc(N3CCCCC3)c2n1 [DIPYRIDAMOLE]
Bacterial Biotransformation: Compound NOT metabolized
//
molecule: O=P1(N(CCCl)CCCl)NCCCO1 (stereo not given) [CYCLOPHOSPHAMIDE ANHYDROUS]
Bacterial Biotransformation: Compound NOT metabolized
//
molecule: N#Cc1ccc2[nH]cc(CCCCN3CCN(c4ccc5oc(C(N)=O)cc5c4)CC3)c2c1 [VILAZODONE]
Bacterial Biotransformation: Compound metabolized
//
molecule: CC1OC(OC2C(O)CC(OC3C(O)CC(OC4CCC5(C)C(CCC6C5CCC5(C)C(C7=CC(=O)OC7)CCC65O)C4)OC3C)OC2C)CC(O)C1O (stereo not given)
Bacterial Biotransformation: Compound metabolized

Returns the measured Bacterial Biotransformation for the input molecule. Input: CN1CCC(=C2c3ccccc3CC(=O)c3sccc32)CC1.O=C(O)/C=C/C(=O)O [KETOTIFEN FUMARATE] Compound NOT metabolized

Returns the measured Bacterial Biotransformation for the input molecule. Input: CN(C)CC(c1ccc(O)cc1)C1(O)CCCCC1.O=C(O)CCC(=O)O (stereo not given) [DESVENLAFAXINE SUCCINATE] Compound NOT metabolized

Returns the measured Bacterial Biotransformation for the input molecule. Input: CC(=O)Oc1ccc(C(c2ccc(OC(C)=O)cc2)c2ccccn2)cc1 [BISACODYL] Compound metabolized

Returns the measured Bacterial Biotransformation for the input molecule. Input: CCOC(=O)C1=C[C@]2(CC)CCCN3CCc4c(n1c1ccccc41)[C@@H]32 [VINPOCETINE] Compound NOT metabolized

###

conditions: limosilactobacillus reuteri cf48-3a, 12 h, 2 µM
Description: The drug is tested on Lactobacillus reuteri CF48-3A strain: BEI HM-102 for biotransformation. The drug concentrations were measured before and after a 12-h incubation by liquid-chromatography-coupled mass spectrometry (LC–MS)
reported_property: Bacterial Biotransformation

Consider the following illustrative entries.
molecule: CC(=O)OCC(CCn1cnc2cnc(N)nc21)COC(C)=O [FAMCICLOVIR]
Bacterial Biotransformation: Compound NOT metabolized

molecule: CCOC(=O)[C@H](CCc1ccccc1)N[C@@H](C)C(=O)N1CCC[C@H]1C(=O)O.O=C(O)/C=C\C(=O)O [ENALAPRIL MALEATE]
Bacterial Biotransformation: Compound NOT metabolized

molecule: CC(C)C[C@H]1C(=O)N2CCC[C@H]2[C@]2(O)O[C@](NC(=O)[C@@H]3C=C4c5cccc6[nH]c(Br)c(c56)C[C@H]4N(C)C3)(C(C)C)C(=O)N12.CS(=O)(=O)O [BROMOCRIPTINE MESYLATE]
Bacterial Biotransformation: Compound metabolized

molecule: CCOC(=O)[C@H](CCc1ccccc1)N[C@H]1CCc2ccccc2N(CC(=O)O)C1=O [BENAZEPRIL]
Bacterial Biotransformation: Compound NOT metabolized

molecule: CC#CCn1c(N2CCC[C@@H](N)C2)nc2c1c(=O)n(Cc1nc(C)c3ccccc3n1)c(=O)n2C [LINAGLIPTIN]
Bacterial Biotransformation: Compound NOT metabolized

// next entry
Returns the measured Bacterial Biotransformation for the input molecule. Input: O=C(O[C@H]1C[C@H]2CC[C@@H](C1)[N+]21CCCC1)C(O)(c1ccccc1)c1ccccc1.[Cl-] [TROSPIUM CHLORIDE] Compound NOT metabolized

###

settings: limosilactobacillus reuteri cf48-3a, 12 h, 2 µM
reported_property: Bacterial Biotransformation

molecule: CC(=O)OCC(=O)[C@@]12N=C(C)O[C@@H]1C[C@H]1[C@@H]3CCC4=CC(=O)C=C[C@]4(C)[C@H]3[C@@H](O)C[C@@]12C
result: Compound metabolized

molecule: CC1=C(CC(=O)O)c2cc(F)ccc2/C1=C\c1ccc([S+](C)[O-])cc1 (configuration not stated)
result: Compound NOT metabolized

molecule: C[C@]12CCC(=O)C=C1[C@@H]1C[C@@H]1[C@H]1[C@@H]3[C@@H]4C[C@@H]4[C@@]4(CCC(=O)O4)[C@@]3(C)CC[C@@H]12
result: Compound NOT metabolized

molecule: CCCC1O[C@@H]2C[C@H]3[C@@H]4CCC5=CC(=O)C=C[C@]5(C)[C@H]4[C@@H](O)C[C@]3(C)[C@]2(C(=O)CO)O1 (some centres not stated) [BUDESONIDE]
result: Compound NOT metabolized

molecule: Br.COc1ccc2c(c1)[C@]13CCCC[C@@H]1[C@H](C2)N(C)CC3.O [DEXTROMETHORPHAN HYDROBROMIDE]
result: Compound NOT metabolized

// next entry
Returns the measured Bacterial Biotransformation for the input molecule. Input: CC[C@H](C)C(=O)O[C@H]1CCC=C2C=C[C@H](C)[C@H](CC[C@@H]3C[C@@H](O)CC(=O)O3)[C@H]21 Compound metabolized
